Origin of measurements: patent US8710233B2

- system.tested: VR1/TRPV1 receptor (Homo sapiens, UniProt Q8NER1)
- Sequence (Q8NER1 whole entry): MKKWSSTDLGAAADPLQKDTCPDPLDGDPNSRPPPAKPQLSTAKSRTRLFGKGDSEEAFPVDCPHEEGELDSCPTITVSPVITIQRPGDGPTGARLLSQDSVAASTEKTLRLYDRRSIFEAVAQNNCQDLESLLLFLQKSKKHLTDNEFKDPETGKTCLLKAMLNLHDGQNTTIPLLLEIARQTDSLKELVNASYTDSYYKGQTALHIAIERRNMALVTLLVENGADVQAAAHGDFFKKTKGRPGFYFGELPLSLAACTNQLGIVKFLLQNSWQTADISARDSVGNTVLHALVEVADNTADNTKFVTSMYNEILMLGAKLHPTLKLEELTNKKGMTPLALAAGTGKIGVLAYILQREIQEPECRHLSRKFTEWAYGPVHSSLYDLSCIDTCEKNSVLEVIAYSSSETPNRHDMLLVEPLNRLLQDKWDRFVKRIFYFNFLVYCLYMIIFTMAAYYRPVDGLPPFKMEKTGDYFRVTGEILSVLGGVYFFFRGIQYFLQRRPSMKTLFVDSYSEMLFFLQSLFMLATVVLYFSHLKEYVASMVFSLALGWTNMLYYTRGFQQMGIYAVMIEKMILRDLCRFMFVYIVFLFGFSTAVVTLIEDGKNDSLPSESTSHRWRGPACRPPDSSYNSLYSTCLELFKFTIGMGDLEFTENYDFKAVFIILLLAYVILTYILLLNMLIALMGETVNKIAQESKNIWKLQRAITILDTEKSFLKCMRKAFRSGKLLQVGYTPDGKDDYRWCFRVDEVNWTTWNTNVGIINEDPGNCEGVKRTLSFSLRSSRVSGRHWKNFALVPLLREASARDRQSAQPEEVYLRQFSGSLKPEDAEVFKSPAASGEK
- assay.procedure: IC50 (human) after pH stimulus
- Assay type: cell-based
- test.context: table 4
recorded.endpoint: IC50 (nM)
One number for each entry, in nM.

# example entries with known answers
CC(C(=O)NCc1ccc(C(F)(F)F)nc1C1=CCCCC1)c1ccc(NS(C)(=O)=O)c(F)c1 (centres unmarked)    99
CC(C(=O)NCc1ccc(C(F)(F)F)nc1/C=C/C1CCCCC1)c1ccc(NS(C)(=O)=O)c(F)c1 (centres unmarked)    66

Batch request: IC50 for each of the following compounds.
1. CCCCCCOc1nc(C(F)(F)F)ccc1CNC(=O)[C@@H](C)c1ccc(NS(C)(=O)=O)c(F)c1
2. CCOc1nc(C(C)(C)C)ccc1CNC(=O)C(C)c1ccc(NS(C)(=O)=O)c(F)c1 (centres unmarked)
3. CC(C)COc1cc(C(F)(F)F)ccc1CNC(=O)[C@H](C)c1ccc(NS(C)(=O)=O)c(F)c1
4. CC(C(=O)NCc1ccc(C(F)(F)F)nc1-c1ccc2cc[nH]c2c1)c1ccc(NS(C)(=O)=O)c(F)c1 (centres unmarked)
5. CCc1ccc(COc2nc(C(F)(F)F)ccc2CNC(=O)C(C)c2ccc(NS(C)(=O)=O)c(F)c2)cc1 (centres unmarked)
6. CC(C(=O)NCc1ccc(C(F)(F)F)nc1-c1ccc(F)cc1)c1ccc(NS(C)(=O)=O)c(F)c1 (centres unmarked)

Output line:
1. 12.3
2. 492
3. 419
4. 1190
5. 165
6. 131

* * *

- system.tested: VR1/TRPV1 receptor (Homo sapiens)
- assay.procedure: IC50 (human) after pH stimulus
- Assay type: cell-based
- test.context: @ 1 μM; ne = no effect; read-out: inhibition in percent, IC50 (human) after pH stimulus
recorded.endpoint: inhibition at 1 µM (%)
Give bare numbers, in %.

# example entries with known answers
CC(C(=O)NCc1ccc(C(F)(F)F)nc1N1CCN(C)CC1)c1ccc(NS(C)(=O)=O)c(F)c1 (stereo not drawn)    15
CC(C(=O)NCc1ccc(C(C)(C)C)nc1OCc1ccccc1)c1ccc(NS(C)(=O)=O)c(F)c1 (stereo not drawn)    70

// moving on: another record for inhibition at 1 µM
Input line: Give the measured inhibition at 1 µM of CC1CCN(c2nc(C(F)(F)F)ccc2CNC(=O)C(C)c2ccc(NS(C)(=O)=O)cc2)CC1 (stereo not drawn) .
Output line: 58

* * *

Field: inhibition in vivo at 0.3 mg/kg. Provide a value for each of the compounds that follow.
- Tested on: formaldehyde induced nociceptive behaviour
- assay.procedure: Formaldehyde test in mice, second (late) phase
- Assay type: in vivo, mouse
- test.context: 0.3 mg/kg body weight po; mouse; read-out: inhibition formaldehyde test (n = 10)
Give bare numbers, in %.

# example entries with known answers
CC(C(=O)NCc1ccc(C(F)(F)F)nc1-c1ccc(C(C)(C)C)cc1)c1ccc(NS(C)(=O)=O)c(F)c1 (stereo not drawn)    5
CC(C(=S)NCc1ccc(C(F)(F)F)nc1-c1ccc(F)cc1)c1ccc(NS(C)(=O)=O)c(F)c1 (stereo not drawn)    41

// moving on: another record for inhibition in vivo at 0.3 mg/kg
Input line: Give the measured inhibition in vivo at 0.3 mg/kg of CC(C(=O)NCc1ccc(C(F)(F)F)cc1N1CCCCCC1)c1ccc(NS(C)(=O)=O)c(F)c1 (stereo not drawn) .
Output line: 5
